- study.target: human glucocorticoid receptor (GR) complex (Homo sapiens, UniProt P04150)
- Construct: made in house; host or cells: insect expression system (baculovirus lysate)
- Sequence (P04150 whole entry, one chain of several): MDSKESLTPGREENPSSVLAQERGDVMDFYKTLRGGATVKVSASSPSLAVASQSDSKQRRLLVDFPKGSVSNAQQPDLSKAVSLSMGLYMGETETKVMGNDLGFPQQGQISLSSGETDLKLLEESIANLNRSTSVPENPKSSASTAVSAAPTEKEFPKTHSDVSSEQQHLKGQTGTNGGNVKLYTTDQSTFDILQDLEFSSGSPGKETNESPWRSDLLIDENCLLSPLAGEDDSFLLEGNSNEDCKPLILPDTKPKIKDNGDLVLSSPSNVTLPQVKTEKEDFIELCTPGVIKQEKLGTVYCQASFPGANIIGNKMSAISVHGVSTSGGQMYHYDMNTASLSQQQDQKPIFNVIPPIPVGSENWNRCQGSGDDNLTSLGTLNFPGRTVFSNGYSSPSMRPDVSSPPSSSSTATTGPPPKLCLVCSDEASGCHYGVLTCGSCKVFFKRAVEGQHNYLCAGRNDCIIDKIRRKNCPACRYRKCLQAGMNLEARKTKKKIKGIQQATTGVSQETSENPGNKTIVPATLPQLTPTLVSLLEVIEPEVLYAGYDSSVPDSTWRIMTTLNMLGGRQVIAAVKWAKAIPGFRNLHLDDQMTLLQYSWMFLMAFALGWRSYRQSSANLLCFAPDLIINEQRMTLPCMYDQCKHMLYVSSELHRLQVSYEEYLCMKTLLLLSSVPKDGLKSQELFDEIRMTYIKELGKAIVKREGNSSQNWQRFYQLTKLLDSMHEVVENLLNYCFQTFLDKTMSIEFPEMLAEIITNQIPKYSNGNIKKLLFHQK
- measurement.notes: Glucocorticoid receptor competitive binding assay (fluorescence polarization, TAMRA-labeled dexamethasone probe)
- condition.context: qualitative statement, values not given
parameter: activity in the GR binding assay

Below are worked cases with known answers.
Query string: Entry COc1ccc(F)cc1C(C)(C)CC(N)(Cc1ccc(C#N)cc1Cl)C(F)(F)F (stereo not shown) [Compound 5] has what activity in the GR binding assay?
Result string: demonstrated activity

Query string: Queued: COc1ccc(F)cc1C(C)(C)CC(N)(Cc1cc(Cl)cc(Cl)c1)C(F)(F)F (stereo not shown) [Compound 2]
Result string: demonstrated activity

Query string: Now this one: COc1ccc(F)cc1C(C)(C)CC(N)(Cc1cc(C)cc(C)c1)C(F)(F)F (stereo not shown) [Compound 1]
Result string: demonstrated activity

Query string: Proceed to Cc1cc(C)cc(CC(N)(CC(C)(C)c2cc(F)ccc2O)C(F)(F)F)c1 (stereo not shown) [Compound 6]
Result string: demonstrated activity

Query string: Another molecule to look at: COc1ccc(F)cc1C(C)(C)CC(N)(Cc1cc(C(F)(F)F)cc(Cl)c1F)C(F)(F)F (stereo not shown) [Compound 4]
Result string: demonstrated activity

---
Query string: Reported activity in the GR binding assay, molecule COc1ccc(F)cc1C(C)(C)CC(N)(Cc1ccc(Cl)c(Cl)c1)C(F)(F)F (stereo not shown) [Compound 3] : ____
Result string: demonstrated activity

Query string: Again, but for CC(C)(CC(N)(Cc1cc(Cl)cc(Cl)c1)C(F)(F)F)c1cc(F)ccc1O (stereo not shown) [Compound 7]
Result string: demonstrated activity
